Entries and their enrichment ratio values follow.
B1: PhoQ; a variant is named by its letters at X, in order, P23837 (parent)
chain: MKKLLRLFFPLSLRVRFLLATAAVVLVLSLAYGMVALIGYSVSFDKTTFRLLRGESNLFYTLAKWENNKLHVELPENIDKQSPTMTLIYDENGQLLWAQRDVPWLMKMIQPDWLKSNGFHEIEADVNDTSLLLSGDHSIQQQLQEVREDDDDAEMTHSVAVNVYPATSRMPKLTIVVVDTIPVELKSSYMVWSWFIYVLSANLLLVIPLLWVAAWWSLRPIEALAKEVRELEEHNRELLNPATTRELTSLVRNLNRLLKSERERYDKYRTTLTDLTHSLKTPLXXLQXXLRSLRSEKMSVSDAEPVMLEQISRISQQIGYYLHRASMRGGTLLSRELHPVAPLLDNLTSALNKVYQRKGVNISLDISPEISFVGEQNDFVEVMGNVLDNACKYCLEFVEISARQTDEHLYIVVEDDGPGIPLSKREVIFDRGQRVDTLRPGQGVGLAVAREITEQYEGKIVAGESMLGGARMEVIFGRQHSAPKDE

- Variants of: B1
- assay_comment: enrichment ratio after two sorts for PhoP signalling (ratio (wild type AVST 3.29)); higher = more functional
- assay_conditions: with PhoP (E. coli)
Over roughly 140,000 sequences, “enrichment ratio after two sorts for PhoP signalling” has its median near 0; the highest 2% begin near 11. For the sample, the highest values were picked, then their nearest neighbours and some sequences at random.

Here is how some variants turned out for enrichment ratio.
1. CSLY : 0.296
2. RPHF : ≤ 0.25
3. MSHF : 2.07
4. IMKM : ≤ 0.25

Which enrichment ratio value belongs to YKMT ?
0.253

Which enrichment ratio value belongs to HPHL ?
≤ 0.25

Which enrichment ratio value belongs to MGLF ?
2.83

Which enrichment ratio value belongs to NNYE ?
≤ 0.25

Which enrichment ratio value belongs to SALF ?
9.67

Which enrichment ratio value belongs to ACLR ?
8.18

Which enrichment ratio value belongs to CSLP ?
≤ 0.25

Which enrichment ratio value belongs to ASLR ?
3.29

Which enrichment ratio value belongs to FSNW ?
≤ 0.25

Which enrichment ratio value belongs to STCD ?
6.22

Which enrichment ratio value belongs to VCCD ?
≤ 0.25

Which enrichment ratio value belongs to IGQR ?
≤ 0.25

Which enrichment ratio value belongs to ALLQ ?
14.7

Which enrichment ratio value belongs to SNCD ?
16.4

Which enrichment ratio value belongs to ACLQ ?
11.6

Which enrichment ratio value belongs to PRTC ?
≤ 0.25

Which enrichment ratio value belongs to FMNE ?
≤ 0.25

Which enrichment ratio value belongs to FKQC ?
≤ 0.25
